Where do the numbers come from? From patent US6362212B1.

measure.name: melting point

Enquiry: Name the reported melting point value associated with the compound CON=C(c1nnn(C)n1)c1ccccc1COc1cc(C)ccc1C
Return: 131 to 132 °C

###

measure.name: melting point

Here is how some molecules turned out for melting point.
>  <molecule>
CON=C(c1cc(C)no1)c1ccccc1CON=C(C)c1ccc(Cl)c(Cl)c1

>  <melting point>
84 to 85 °C

$$$$
>  <molecule>
CON=C(c1cc(C)no1)c1ccccc1COc1ncc(C(F)(F)F)cc1Cl

>  <melting point>
77 to 79 °C

$$$$
>  <molecule>
CON=C(c1ncno1)c1ccccc1COc1ccc(Cl)cc1

>  <melting point>
96 to 97.5 °C

$$$$
>  <molecule>
CON=C(c1ccccc1COc1cccc(Cl)c1)n1ccnc1

>  <melting point>
96.5 to 97.5 °C

$$$$
>  <molecule>
CON=C(c1ccon1)c1ccccc1COc1cc(C)ccc1C (single isomer, unassigned)

>  <melting point>
104 to 108 °C

$$$$

Enquiry: Name the reported melting point value associated with the molecule CON=C(c1nnco1)c1ccccc1COc1cc(C)ccc1C
Return: 134 to 135 °C

Enquiry: Name the reported melting point value associated with the molecule CON=C(c1ncon1)c1ccccc1COc1ccc(Cl)cc1
Return: 107 to 108 °C
